Tested on: human maximum recommended daily dose, FDA database
Assay: DSSTox (FDAMDD) FDA Maximum (Recommended) Daily Dose Database
Conditions: TherapeuticCategory: mucolytic; uroprotective; hits give low values
Source text: The Food and Drug Administration (FDA) Center for Drug Evaluation and Research, Office of Pharmaceutical Science, Informatics and Computational Safety Analysis Staff's Maximum Recommended Daily Dose (FDAMDD) database contains values for over 1200 pharmaceuticals listed in Martindale: The Extra Pharmacopoeia (1973, 1983, and 1993) and The Physicians' Desk Reference (1995 and 1999). […]
Measured endpoint: maximum recommended daily dose (mmol/kg-bw/day)

{"Smiles representation": "O=S(=O)(O)CCS", "Tested on": "human maximum recommended daily dose, FDA database", "Measured": 0.0281}

The values you see were collected from PubChem BioAssay AID1195.
